# credit: paper PMC10451648

System: multidrug-resistant P. aeruginosa (MDRP)
Assay type: cell-based, Pseudomonas aeruginosa
Conditions Used: multidrug-resistant (MDRP, 18 h)
Square brackets hold non-standard residues; d marks the D form. Peptide text beside a SMILES is read from it. Api = NC1(C(=O)O)CCNCC1; Aib = CC(C)(N)C(=O)O
Reported MIC, MDRP values for a set of molecules
Please give a number only; it is taken to be in µM.

molecule="CC[C@H](C)[C@H](NC(=O)CN)C(=O)N[C@@H](CCCCN)C(=O)N[C@@H](CCCCN)C(=O)N[C@@H](Cc1ccccc1)C(=O)N[C@@H](CC(C)C)C(=O)N[C@@H](CCCCN)C(=O)N[C@@H](CO)C(=O)NC(C)(C)C(=O)N[C@@H](CCCCN)C(=O)N[C@@H](CCCCN)C(=O)N[C@@H](Cc1ccccc1)C(=O)N[C@H](C(=O)NC1(C(=O)NC(C)(C)C(=O)N[C@@H](Cc2ccccc2)C(=O)N[C@@H](CCCCN)C(N)=O)CCNCC1)C(C)C [Peptide 7] (H-GIKKFLKS[Aib]KKFV[Api][Aib]FK-NH2)" measured_result=6.25
molecule="CC[C@H](C)[C@H](NC(=O)CN)C(=O)N[C@@H](CCCCN)C(=O)N[C@@H](CCCCN)C(=O)N[C@@H](Cc1ccccc1)C(=O)N[C@@H](CC(C)C)C(=O)N[C@@H](CCCCN)C(=O)N[C@@H](CO)C(=O)NC(C)(C)C(=O)N[C@@H](CCCCN)C(=O)N[C@@H](CCCCN)C(=O)N[C@@H](Cc1ccccc1)C(=O)N[C@H](C(=O)N[C@@H](CCCCN)C(=O)NC(C)(C)C(=O)N[C@@H](Cc1ccccc1)C(=O)N[C@@H](CCCCN)C(N)=O)C(C)C [Peptide 1] (H-GIKKFLKS[Aib]KKFVK[Aib]FK-NH2)" measured_result=6.25
molecule="CC[C@H](C)[C@H](NC(=O)CN)C(=O)N[C@@H](CCCCN)C(=O)N[C@@H](CCCCN)C(=O)N[C@@H](Cc1ccccc1)C(=O)N[C@@H](CC(C)C)C(=O)N[C@@H](CCCCN)C(=O)N[C@@H](CO)C(=O)NC(C)(C)C(=O)N[C@@H](CCCCN)C(=O)N[C@@H](CCCCN)C(=O)N[C@@H](Cc1ccccc1)C(=O)N[C@H](C(=O)N[C@@H](CCCCN)C(=O)NC(C)(C)C(=O)N[C@@H](Cc1ccccc1)C(=O)NC1(C(N)=O)CCNCC1)C(C)C [Peptide 8] (H-GIKKFLKS[Aib]KKFVK[Aib]F[Api]-NH2)" measured_result=12.5
molecule="CC[C@H](C)[C@H](NC(=O)CN)C(=O)N[C@@H](CCCCN)C(=O)N[C@@H](CCCCN)C(=O)N[C@@H](Cc1ccccc1)C(=O)N[C@@H](CC(C)C)C(=O)NC1(C(=O)N[C@@H](CO)C(=O)NC(C)(C)C(=O)N[C@@H](CCCCN)C(=O)N[C@@H](CCCCN)C(=O)N[C@@H](Cc2ccccc2)C(=O)N[C@H](C(=O)N[C@@H](CCCCN)C(=O)NC(C)(C)C(=O)N[C@@H](Cc2ccccc2)C(=O)N[C@@H](CCCCN)C(N)=O)C(C)C)CCNCC1 [Peptide 4] (H-GIKKFL[Api]S[Aib]KKFVK[Aib]FK-NH2)" measured_result=6.25

Inquiry: Give the reported MIC, MDRP for this molecule. CC[C@H](C)[C@H](NC(=O)CN)C(=O)N[C@@H](CCCCN)C(=O)N[C@@H](CCCCN)C(=O)N[C@@H](Cc1ccccc1)C(=O)N[C@@H](CC(C)C)C(=O)N[C@@H](CCCCN)C(=O)N[C@@H](CO)C(=O)NC(C)(C)C(=O)N[C@@H](CCCCN)C(=O)NC1(C(=O)N[C@@H](Cc2ccccc2)C(=O)N[C@H](C(=O)N[C@@H](CCCCN)C(=O)NC(C)(C)C(=O)N[C@@H](Cc2ccccc2)C(=O)N[C@@H](CCCCN)C(N)=O)C(C)C)CCNCC1 [Peptide 6] (H-GIKKFLKS[Aib]K[Api]FVK[Aib]FK-NH2)
Reply text: 6.25
